- Tested on: MS2 coat protein
- Method description: apparent KD of MS2 coat protein; designed switch direction (-1 OFF switch, 1 ON switch): 1; higher = weaker reporter binding
- Experimental context: input ligand: microRNA oligo, concentration not stated
Is apparent KD of MS2 coat protein at least 0.06 µM? Then y. If not, n.

Look over these answered cases.
CUGAGCAGUCAAGGAUAUCACGUCGAAUAGACGUGAGAAGGUGACCAAUACAUGAGGAUCACCCAUGUAAUACAUGAAGCUCAG [SSNG1/12-A1] (Eterna round: R96, puzzle: Same State NG 1)	n
GGAGCCGGCCUAGGAUAUUUCAUAAAUAAACAUGAGGAUCACCCAUGUAGGCCAGAAGGCCUUGGGAAGAAGGAGGUCGGCUCC [Loop Effect - U27] (Eterna round: R96, puzzle: Same State NG 2)	n
AUACCAUCGGGAGGAUAUGGCACCUUAUUGGUGCCAGAAGGUCUAACAUGAGGAUCACCCAUGUGGGAGUGGUCUAAUGACCAC [Eli NG1ss - 87] (Eterna round: R96, puzzle: Same State NG 1)	y
GCCGCAAGGGCAGGAUAUGGGUCCAGAGUGCAAAUACACUCUGGUACAUGAGGAUCACCCAUGUCCCAGAAGGGCCCAAGCGGC [Teerledion] (Eterna round: R96, puzzle: Same State NG 2)	y
UGAACCUUCACAGGAUAUCAUGCGAAAAUUGCGUGAGAAGGGUGAAUACGGUGUUCAUAGUUGCACAUGAGGAUCACCCAUGUA [SameState NG1 #54] (Eterna round: R96, puzzle: Same State NG 1)	y
GAAAAACAUGAGGAUCACCCAUGUAAAAAAAUGGGAGGAUAUACAAAGACGAAAGUCAAAGUAGAAGGCCUGAAAG [same state 2] (Eterna round: R96, puzzle: Same State 1)	n
AACAUGUGGUGUCACAUGAGGAUCACCCAUGUGGUAAAAGCUGAGGAUAUAAAGAGAAACAUGAAUUAGAAGGUAGGAUCACAA [AK SSNG3-V2-19] (Eterna round: R96, puzzle: Same State NG 3)	y

# input for lookup
Query: Decide: is the reported value of apparent KD of MS2 coat protein for UGAAUAGUUACAGGAUAUGAGCCGUAAAUUGGGUCAGAAGGGUGGGUGUUCUGCGCUGUGUGUUACAUGAGGAUCACCCAUGUU [SameState NG1 #31] (Eterna round: R96, puzzle: Same State NG 1) equal to or greater than 0.06 µM?
Result: n
